- experiment.notes: log P measured by the procedure of Donovan and Pescatore, internally standardized with toluene and triphenylene
- Format: physicochemical
- test.parameters: pH = 7; based on logP assigned to toluene 2.605 and triphenylene 6.266
- Experimental: Compositions of herbicides were prepared using melts of mixtures of nonionic block copolymer and ethoxylated surfactants. Specifically, tristyrylphenol etoxylate (Soprophor BSU, Rhodia) was used in combination with Pluronic P123 (PEO20-PPO69-PEO20). The list of the herbicides and corresponding log P values (the log P values were measured according procedure described by Donovan and Pescatore, J Chromatography A 2002, 952, 47-61) are presented in Table 22. […]
Below, each entry is listed alongside its reported logP, Average.
Write no unit; give the number alone.

// below: answered compounds
                                   compound  meas_value
0  N#Cc1c(Cl)c(Cl)c(Cl)c(C#N)c1Cl [Chlorthalonil]       4.234
1  CCC(CC)Nc1c([N+](=O)[O-])cc(C)c(C)c1[N+](=O)[O-] [Prowl]       5.101

Below: the item to evaluate.
In: Give the measured logP, Average of CCCN(CCC)c1c([N+](=O)[O-])cc(C(F)(F)F)cc1[N+](=O)[O-] [Trifluran] .
Out: 5.084
